Test system: ENR+CD organoids (ISC to Paneth cell differentiation)
Assay: Primary screen: basal (non-stimulated) lysozyme secretion LYZ.NS, 2.5-D 384-well ENR+CD organoid differentiation
Assay type: cell-based, mouse
Conditions: primary screen; dose 10.00 uM; FC vs plate median
Our labelling divides records by Dose.FC.LYZ.NS into ranges: Low (below -0.08 log2 fold change), Mid (-0.08 log2 fold change to below -0.008 log2 fold change), High (-0.008 log2 fold change or more)

NC(=O)N1c2ccccc2CC(=O)c2ccccc21 [Oxcarbazepine]: Mid
O=C(NOC[C@H](O)CO)c1ccc(F)c(F)c1Nc1ccc(I)cc1F [PD0325901]: Low
Oc1cc(O)cc(/C=C/c2ccc(O)c(O)c2)c1 [Piceatannol]: Mid
S=C=Nc1cccc(NC(=S)NCCCCNC(=S)Nc2cccc(N=C=S)c2)c1 [MRS 2578]: High
FC(F)(F)c1ccc(/C=C/c2nc(COc3ccc(CCCCn4ccnn4)cc3)co2)cc1 [Mubritinib (TAK 165)]: Low
COc1ccc(-c2nc3ccc(C4=NNC(=O)CC4C)cc3[nH]2)cc1 (centres unmarked) [Pimobendan]: Mid
O=C(O)Cn1nnc(-c2cc(N3CCC(Oc4cc(F)ccc4Br)CC3)no2)n1 [MK-8245]: Mid
CCCCCCCCCCCCCCCCn1cc[n+](Cc2ccccc2)c1C.[I-] [NH125]: Low
C=CCc1cccc(/C=N/NC(=O)CN2CCN(Cc3ccccc3)CC2)c1O [PAC-1]: High
O=C(O)c1ccc(Nc2ncc3c(n2)-c2ccc(Cl)cc2C(c2c(F)cccc2F)=NC3)cc1 [MLN8054]: Low

Request: Lab log: CN(Cc1cnc2nc(N)nc(N)c2n1)c1ccc(C(=O)N[C@@H](CCC(=O)O)C(=O)O)cc1 [Methotrexate] — assign Dose.FC.LYZ.NS category
Response: Mid

Request: Now consider COc1ccccc1N1CCN(CC(O)COc2cccc3ccccc23)CC1 (centres unmarked) [Naftopidil] .
Response: Mid

Request: Now consider Cc1cc(OCc2nnc(SC3CCCC3)n2-c2cccnc2)ccc1-c1ccc(S(C)(=O)=O)cc1 [NMS-873] .
Response: Low

###

Tested on: ENR+CD organoids (ISC to Paneth cell differentiation)
Assay: Primary screen: basal (non-stimulated) lysozyme secretion LYZ.NS, 2.5-D 384-well ENR+CD organoid differentiation
Type: cell-based, mouse
Settings: primary screen, dose 0.40 uM, standard z score
metric: Z.LYZ.NS
One number for each entry.

Here's what some known entries look like.
O=C1NC(=O)C(c2ccccc2[N+](=O)[O-])=C1Nc1ccc(O)c(Cl)c1 [SB415286]: 0.101
COc1c(C)c(C(=O)c2ccc(N)c(C(=O)[O-])c2)n2ccccc12.[Na+] [SSR128129E]: 0.339
Cl.Cl.NC1(c2ccc(-c3nc4ccn5c(=O)[nH]nc5c4cc3-c3ccccc3)cc2)CCC1 [MK-2206 2HCl]: −0.550

Request: Record request: Z.LYZ.NS value, item O=C1NC(=O)/C(=C/c2cccc(C(F)(F)F)c2)S1 [SMI-4a]
Response: −0.524

###

System: ENR+CD organoids (ISC to Paneth cell differentiation)
Assay: Primary screen: basal (non-stimulated) lysozyme secretion LYZ.NS, 2.5-D 384-well ENR+CD organoid differentiation
Format: cell-based, mouse
Conditions: primary screen, dose 0.40 uM
Source text: High-throughput screening.
Our labelling divides records by Dose.FC.LYZ.NS (log2 fold change) into ranges: small value: < 0; mid value: ≥ 0 and < 0.08; large value: ≥ 0.08

CNC(=O)[C@H](Cc1c[nH]c2ccccc12)NC(=O)[C@@H](CC(=O)NO)CC(C)C: small value
CC(C)(C)c1cc(C(C)(C)C)c(NC(=O)c2c[nH]c3ccccc3c2=O)cc1O: large value
O=C1[C@H](Cc2ccc(O)cc2)N2C(=O)CCN(C(=O)NCc3ccccc3)[C@H]2CN1Cc1cccc2ccccc12: mid value
Cc1c(C(=O)Nc2ccc(N3C[C@@H](C)O[C@@H](C)C3)nc2)cccc1-c1ccc(OC(F)(F)F)cc1: large value
COc1cc(-n2c(=S)[nH]c3ccccc3c2=O)c(Cl)cc1Cl: large value

Request: Lab log: Cc1cc(SCc2sc(-c3ccc(C(F)(F)F)c(F)c3)nc2C)ccc1OCC(=O)O — assign Dose.FC.LYZ.NS (log2 fold change) category
Response: mid value

###

System: ENR+CD organoids (ISC to Paneth cell differentiation)
Assay: Primary screen: basal (non-stimulated) lysozyme secretion LYZ.NS, 2.5-D 384-well ENR+CD organoid differentiation
Format: cell-based, mouse
Conditions: primary screen, standard z score, dose 0.40 uM
Would you kindly list Z.LYZ.NS for each of these compounds?
Give bare numbers.

Here's what some known entries look like.
COc1ccc2nc([S@@+]([O-])Cc3ncc(C)c(OC)c3C)[nH]c2c1 [Esomeprazole Sodium]: 2.030
NC(=O)C1CCCc2c1[nH]c1ccc(Cl)cc21 (stereo not shown) [EX 527 (Selisistat)]: 0.512

Working through the 2 compounds below one at a time, give Z.LYZ.NS for each.
1. CC(C)C[C@H](NC(=O)[C@@H](NC(=O)c1cccc(-c2ccccc2)n1)[C@@H](C)O)B(O)O
2. CCN(CC)C(=O)/C(C#N)=C/c1cc(O)c(O)c([N+](=O)[O-])c1

Response:
1. −0.664
2. 0.102

###

Would you kindly list Z.LYZ.NS for each of these compounds?
Test system: ENR+CD organoids (ISC to Paneth cell differentiation)
Assay: Primary screen: basal (non-stimulated) lysozyme secretion LYZ.NS, 2.5-D 384-well ENR+CD organoid differentiation
Assay type: cell-based, mouse
Settings: primary screen, standard z score, dose 10.00 uM
Give bare numbers.

Here's what some known entries look like.
C[C@H](CS)C(=O)N1CCC[C@H]1C(=O)O: 1.330
CC(C)n1c(/C=C/C(O)CC(O)CC(=O)O)c(-c2ccc(F)cc2)c2ccccc21 (centres unmarked) [Fluvastatin Sodium]: −1.388
CCOc1nc2cccc(C(=O)O)c2n1Cc1ccc(-c2ccccc2-c2nnn[nH]2)cc1: −0.442

Working through the 4 compounds below one at a time, give Z.LYZ.NS for each.
1. O=C(/C=C/c1ccc(O)c(O)c1)OCCc1ccccc1
2. COCCOc1ccc2c(c1)ncn2-c1ccc2cccc(N3CCC(N)CC3)c2n1
3. c1ccc(CNc2nc(NCc3ccccc3)c3ccccc3n2)cc1
4. COc1ccc(C[C@@H](C)NC[C@H](O)c2ccc(O)c(NC=O)c2)cc1.COc1ccc(C[C@@H](C)NC[C@H](O)c2ccc(O)c(NC=O)c2)cc1.O=C(O)/C=C/C(=O)O [Formoterol Hemifumarate]

Response:
−0.227
−0.508
−2.577
0.114

Request: Record request: Z.LYZ.NS value, item CCc1cccc2c3c([nH]c12)C(CC)(CC(=O)O)OCC3 (centres unmarked)
Response: −0.078

###

Test system: ENR+CD organoids (ISC to Paneth cell differentiation)
Assay: Primary screen: basal (non-stimulated) lysozyme secretion LYZ.NS, 2.5-D 384-well ENR+CD organoid differentiation
Format: cell-based, mouse
Conditions: primary screen, dose 0.08 uM
The label condition met is reserved for Z.LYZ.NS (standard z score) strictly under 0.7; condition not met covers values equal to or above it.

CCO.N#CC(=C(/N)Sc1ccccc1N)/C(C#N)=C(\N)Sc1ccccc1N [U0126-EtOH]: condition not met

Request: Could you please tell me whether Z.LYZ.NS (standard z score) recorded for O=C(c1ccc(Nc2nccc(-c3cc4ccccc4s3)n2)cc1)N1CCC(N2CCCC2)CC1 [IKK-16 (IKK Inhibitor VII)] is less than 0.7?
Response: condition not met

Request: Now consider NC(=O)Nc1sc(-c2ccc(F)cc2)cc1C(N)=O [TPCA-1] .
Response: condition met

Request: Now consider N#C[C@@H]1CCCN1C(=O)CNC12CC3CC(CC(O)(C3)C1)C2 [Vildagliptin (LAF-237)] .
Response: condition not met

Request: Now consider CNCc1ccc(-c2cc(-c3nc(-c4ccc(S(=O)(=O)C(C)C)cc4)cnc3N)on2)cc1 [VE-822] .
Response: condition met

###

Test system: ENR+CD organoids (ISC to Paneth cell differentiation)
Assay: Primary screen: CCh-stimulated lysozyme secretion LYZ.S, 2.5-D 384-well ENR+CD organoid differentiation
Format: cell-based, mouse
Settings: primary screen, dose 0.40 uM
From the text: High-throughput screening.
Where a name gives a salt, the structure may show the parent alone.
Would you kindly list Dose.FC.LYZ.S (log2 fold change) for each of these compounds?
Answers are plain numbers.

CC(C)c1ccc(NC(=O)Cn2cnc3c2c(=O)n(C)c(=O)n3C)cc1: 0.097
CCc1c2c(nc3ccc(OC(=O)N4CCC(N5CCCCC5)CC4)cc13)-c1cc3c(c(=O)n1C2)COC(=O)[C@]3(O)CC [Irinotecan HCl Trihydrate]: −0.158
O=C(Nc1cc(C(F)(F)F)cc(C(F)(F)F)c1)c1cc(Cl)ccc1O: 0.043

Now take the following compound into account.
Request: Record request: Dose.FC.LYZ.S (log2 fold change) value, item CNC(=O)[C@H](Cc1c[nH]c2ccccc12)NC(=O)[C@@H](CC(=O)NO)CC(C)C
Response: 0.117

Origin of measurements: patent US20220323406A1
